The measurements presented in this section are drawn from paper PMC7356367.

Target protein (sequence): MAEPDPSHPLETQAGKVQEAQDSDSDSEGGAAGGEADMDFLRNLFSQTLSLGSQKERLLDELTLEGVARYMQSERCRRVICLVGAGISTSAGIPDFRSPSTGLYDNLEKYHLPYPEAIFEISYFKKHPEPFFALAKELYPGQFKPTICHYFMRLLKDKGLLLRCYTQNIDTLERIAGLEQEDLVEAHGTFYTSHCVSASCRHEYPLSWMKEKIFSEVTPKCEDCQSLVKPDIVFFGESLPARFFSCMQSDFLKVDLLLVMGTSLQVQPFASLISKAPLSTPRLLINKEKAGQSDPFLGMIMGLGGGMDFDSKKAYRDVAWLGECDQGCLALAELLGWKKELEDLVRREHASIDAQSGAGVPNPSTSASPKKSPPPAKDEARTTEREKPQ
pIC50: −log10 of the molar value.
measured metric: pIC50

compound	pIC50
CCn1c(=O)n(CC2CCCO2)c(=O)c2[nH]c(SSc3nc4c([nH]3)c(=O)n(CC3CCCO3)c(=O)n4CC)nc21 (stereo not shown)	5.79

[I] CCn1c(=O)n(CCc2ccccc2)c(=O)c2[nH]c(SSc3nc4c([nH]3)c(=O)n(CCc3ccccc3)c(=O)n4CC)nc21
[II] CCn1c(=O)n(CC2CCOCC2)c(=O)c2[nH]c(SSc3nc4c([nH]3)c(=O)n(CC3CCOCC3)c(=O)n4CC)nc21
[III] CS(=O)(=O)NCCC1CCN(c2ncnc3cc(C(N)=O)sc23)CC1 [ELT-31, reference compound]
Order the items by recorded pIC50; the first position goes to the largest value. Your task in answering is to list the labels in the requested order.
III, I, II
